Origin of measurements: ChEMBL document CHEMBL1154747

Tested on: NALM-6
Test: Cytotoxicity against human NALM6 cells after 48 hrs by MTT assay
Assay type: functional, cell-based
Details: NALM-6, 48 h
pIC50: −log10 of the molar value.
Note to self: values exactly at 5 are MET. So pIC50 at or above 5 is MET, below is NOT MET.

Example entries and their recorded answers appear below.
>  <molecule>
C=C1C(=O)OC(C)CC1C(C)C (stereo unspecified)

>  <tested.target>
NALM-6

>  <category.label>
NOT MET

$$$$
>  <molecule>
C=C1C(=O)OC(C)CC1c1ccc([N+](=O)[O-])cc1 (stereo unspecified)

>  <tested.target>
NALM-6

>  <category.label>
MET

$$$$
>  <molecule>
C=C1C(=O)OC(C)CC1c1ccc2c(c1)OCO2 (stereo unspecified)

>  <tested.target>
NALM-6

>  <category.label>
MET

$$$$
>  <molecule>
C=C1C(=O)O[C@H](C)[C@@H]1c1ccc(OC)cc1 (relative stereo)

>  <tested.target>
NALM-6

>  <category.label>
MET

$$$$
>  <molecule>
C=C1C(=O)O[C@H](C)[C@@H]1c1ccc([N+](=O)[O-])cc1

>  <tested.target>
NALM-6

>  <category.label>
MET

$$$$

# evaluate next
Check if pIC50 >= 5 (inclusive). Item: C=C1C(=O)O[C@@H](C)[C@@H]1c1ccc(OC)cc1 (relative stereo) MET
